The reported numbers originate from the supplement of paper PMC9112550.

Test system: Escherichia coli TOP10
Assay: shrunken log2 fold change of peptide-encoding DNA abundance (4.5 h post-induction vs induction); higher = less antimicrobial activity (less host growth inhibition)
Details: time post-induction: 4.5 h; library: site-saturation at positions 5, 18, 19, 20
Listing of entries alongside the reported shrunken log2 fold change.
Just the number, please, no unit after it.

Some entries whose results are on file:
| RESIDUE CODES | TESTED TARGET | OBSERVED |
| --- | --- | --- |
| RRIRERPPRLPRPRPRPSDNPRP | Escherichia coli TOP10 | -1.25 |
| RRIRSRPPRLPRPRPRPYQQPRP | Escherichia coli TOP10 | -2.39 |
| RRIRSRPPRLPRPRPRPWDVPRP | Escherichia coli TOP10 | 0.166 |
| RRIRDRPPRLPRPRPRPRMFPRP | Escherichia coli TOP10 | -0.0535 |
| RRIRKRPPRLPRPRPRPIHFPRP | Escherichia coli TOP10 | -0.241 |

Task: Fill in the blank: the reported shrunken log2 fold change of RRIRTRPPRLPRPRPRPCSFPRP is ____.
Output: -0.625

Task: Fill in the blank: the reported shrunken log2 fold change of RRIRVRPPRLPRPRPRPDVEPRP is ____.
Output: 0.372

Task: Fill in the blank: the reported shrunken log2 fold change of RRIRVRPPRLPRPRPRPKGAPRP is ____.
Output: 0.553

Task: Fill in the blank: the reported shrunken log2 fold change of RRIRRRPPRLPRPRPRPSKPPRP is ____.
Output: 0.241

----------
Test system: Escherichia coli TOP10
Assay: shrunken log2 fold change of peptide-encoding DNA abundance (4.5 h post-induction vs induction); higher = less antimicrobial activity (less host growth inhibition)
Conditions: time post-induction: 4.5 h; library: site-saturation at positions 5, 18, 19, 20
Our labelling divides records by shrunken log2 fold change into ranges: bottom range (below -0.1), center range (-0.1 to below -0.002), top range (-0.002 or more)

Worked set:
| RESIDUE CODES | LABEL CLASS |
| --- | --- |
| RRIRNRPPRLPRPRPRPFDFPRP | bottom range |
| RRIRWRPPRLPRPRPRPGRDPRP | top range |
| RRIRKRPPRLPRPRPRPQCEPRP | center range |
| RRIRQRPPRLPRPRPRPRTCPRP | bottom range |
| RRIRDRPPRLPRPRPRPWTYPRP | bottom range |
| RRIRLRPPRLPRPRPRPGKLPRP | top range |
| RRIRIRPPRLPRPRPRPLEVPRP | center range |
| RRIRFRPPRLPRPRPRPWIFPRP | center range |

Task: Which shrunken log2 fold change band matches RRIRSRPPRLPRPRPRPEFPPRP ?
Output: top range

Task: Which shrunken log2 fold change band matches RRIRIRPPRLPRPRPRPDYEPRP ?
Output: center range

Task: Which shrunken log2 fold change band matches RRIRRRPPRLPRPRPRPHAIPRP ?
Output: center range

Task: Which shrunken log2 fold change band matches RRIRARPPRLPRPRPRPDWFPRP ?
Output: top range

----------
System: Escherichia coli TOP10;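 note: peptides expressed intracellularly from a pBAD plasmid library in pooled LB shake-flask culture, induced with 0.3% L-arabinose, DNA abundance read by NGS, three biological replicates, DESeq2 with apeglm shrinkage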
Assay: shrunken log2 fold change of peptide-encoding DNA abundance (4.5 h post-induction vs induction); higher = less antimicrobial activity (less host growth inhibition)
Details: time post-induction: 4.5 h; library: site-saturation at positions 5, 18, 19, 20
Our labelling divides records by shrunken log2 fold change into ranges: range 1 (below -0.2), range 2 (-0.2 to below 0.08), range 3 (0.08 or more)

| RESIDUE CODES | LABEL CLASS |
| --- | --- |
| RRIRMRPPRLPRPRPRPVRTPRP | range 3 |

Task: Which shrunken log2 fold change band matches RRIRLRPPRLPRPRPRPDYYPRP ?
Output: range 1

Task: Which shrunken log2 fold change band matches RRIRPRPPRLPRPRPRPFMKPRP ?
Output: range 1

Task: Which shrunken log2 fold change band matches RRIRERPPRLPRPRPRPCSVPRP ?
Output: range 2

Task: Which shrunken log2 fold change band matches RRIRERPPRLPRPRPRPAYWPRP ?
Output: range 2

Task: Which shrunken log2 fold change band matches RRIRVRPPRLPRPRPRPSDCPRP ?
Output: range 3

Task: Which shrunken log2 fold change band matches RRIRERPPRLPRPRPRPFCGPRP ?
Output: range 2

Task: Which shrunken log2 fold change band matches RRIRCRPPRLPRPRPRPRFIPRP ?
Output: range 2
